# Target or test system: T1, 006 PSMA Fab
# T1 construct: also called Anti-PSMA Fab; anti-PSMA Fab
# Protocol: phage ELISA: biotinylated PSMA Fab on neutravidin plate pre-incubated with PSMA antigen (competitor), clonal phage supernatant, anti-M13-HRP detection
Where no end group is shown, it is not given here.
Reported property: phage binding ELISA signal in presence of PSMA antigen
Numbers only.

Solved entries (count: 6):
VSPLCKPDWMCNGF (Clonal phage of the peptide-180 library; not shown: pIII filament protein of the bacteriophage to which the peptide is fused) [Phage-2485] : 0.0787
FPHLCIPYWMCVRT (Clonal phage of the peptide-180 library; not shown: pIII filament protein of the bacteriophage to which the peptide is fused) [Phage-2486] : 0.198
MGNWCTPPWMCTGF (Clonal phage of the peptide-180 library; not shown: pIII filament protein of the bacteriophage to which the peptide is fused) [Phage-2493] : 0.0704
VVNWCTPAWMCSGF (cysteine pairing not given here; also: displayed on phage as fusion to pIII, pIII and linker sequence not given here, Clonal phage of the peptide-180 library; not shown: pIII filament protein of the bacteriophage to which the peptide is fused) [Phage-2482] : 0.0652
HFKMCVPPWMCLFD (Clonal phage of the peptide-180 library; not shown: pIII filament protein of the bacteriophage to which the peptide is fused) [Phage-2494] : 0.101
ESRLCIPAWMCESQ (Clonal phage of the peptide-180 library; not shown: pIII filament protein of the bacteriophage to which the peptide is fused) [Phage-2496] : 0.0772

Next, consider the following binder.
State its phage binding ELISA signal in presence of PSMA antigen for this binder: DYKWCTPIWMCAGD (cysteine pairing not given here; also: displayed on phage as fusion to pIII, pIII and linker sequence not given here, Clonal phage of the peptide-180 library; not shown: pIII filament protein of the bacteriophage to which the peptide is fused) [Phage-2487] 0.0707

Provenance of the data: patent US20260242478A1
